- measurement_target: T1, human soluble αvβ5 protein (extracellular domains of human αv and β5 integrin subunits) (human, UniProt P06756 31-992; P18084 24-719)
- T1 construct: also called biotin-αvβ5; hsαvβ5
- T1 sequence (P06756 31-992 limits assumed, chain 1 of 2): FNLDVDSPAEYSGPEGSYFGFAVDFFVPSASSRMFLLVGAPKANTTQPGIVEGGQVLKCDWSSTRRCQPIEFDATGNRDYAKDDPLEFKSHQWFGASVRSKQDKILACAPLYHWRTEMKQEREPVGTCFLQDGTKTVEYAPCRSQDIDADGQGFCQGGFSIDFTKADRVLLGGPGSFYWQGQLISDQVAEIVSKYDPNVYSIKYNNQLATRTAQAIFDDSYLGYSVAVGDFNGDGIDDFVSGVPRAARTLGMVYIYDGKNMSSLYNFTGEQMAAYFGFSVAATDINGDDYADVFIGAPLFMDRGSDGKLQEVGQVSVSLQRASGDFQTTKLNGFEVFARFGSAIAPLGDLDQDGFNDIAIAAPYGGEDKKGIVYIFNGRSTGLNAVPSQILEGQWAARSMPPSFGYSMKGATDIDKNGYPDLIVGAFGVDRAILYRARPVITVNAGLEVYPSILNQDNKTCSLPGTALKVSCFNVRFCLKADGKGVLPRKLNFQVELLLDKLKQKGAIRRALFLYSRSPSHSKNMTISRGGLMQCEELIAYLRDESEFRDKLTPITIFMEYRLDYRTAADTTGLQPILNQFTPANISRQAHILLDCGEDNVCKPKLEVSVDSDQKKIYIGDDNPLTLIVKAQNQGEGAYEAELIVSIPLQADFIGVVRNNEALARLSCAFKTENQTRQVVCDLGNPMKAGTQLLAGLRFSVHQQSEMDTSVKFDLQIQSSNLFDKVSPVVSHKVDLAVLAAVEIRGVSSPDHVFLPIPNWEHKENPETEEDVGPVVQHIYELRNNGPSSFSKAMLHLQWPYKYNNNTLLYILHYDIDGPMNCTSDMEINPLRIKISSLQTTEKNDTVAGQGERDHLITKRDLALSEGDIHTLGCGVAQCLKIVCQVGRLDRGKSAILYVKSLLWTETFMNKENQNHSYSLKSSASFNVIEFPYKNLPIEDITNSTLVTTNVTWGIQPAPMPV
- T1 sequence (P18084 24-719 limits assumed, chain 2 of 2): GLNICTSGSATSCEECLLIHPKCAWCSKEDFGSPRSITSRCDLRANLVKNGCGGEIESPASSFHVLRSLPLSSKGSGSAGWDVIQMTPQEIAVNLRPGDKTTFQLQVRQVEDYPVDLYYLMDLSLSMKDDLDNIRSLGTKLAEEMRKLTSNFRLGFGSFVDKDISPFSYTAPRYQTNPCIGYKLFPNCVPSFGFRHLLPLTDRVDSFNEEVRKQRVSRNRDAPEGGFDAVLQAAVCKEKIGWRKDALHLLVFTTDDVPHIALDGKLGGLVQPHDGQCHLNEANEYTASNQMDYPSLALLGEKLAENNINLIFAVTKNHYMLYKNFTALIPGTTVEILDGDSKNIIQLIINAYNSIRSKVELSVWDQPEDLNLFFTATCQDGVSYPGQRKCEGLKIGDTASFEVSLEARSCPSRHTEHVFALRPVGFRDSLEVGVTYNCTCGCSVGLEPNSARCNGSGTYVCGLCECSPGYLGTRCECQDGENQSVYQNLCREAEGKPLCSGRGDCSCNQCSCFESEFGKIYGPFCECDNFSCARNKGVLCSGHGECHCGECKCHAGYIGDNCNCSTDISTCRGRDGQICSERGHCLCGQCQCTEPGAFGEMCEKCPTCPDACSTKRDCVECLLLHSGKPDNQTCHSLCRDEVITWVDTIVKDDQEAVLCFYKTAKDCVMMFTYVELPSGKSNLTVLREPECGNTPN
- experiment: ELISA, biotin-αvβ5 on streptavidin plate, unpurified antibody
Listed binders paired with reported EC50
Respond with the bare value in nM.

{"binder": "VH3/VL1 Agly-hIgG1(T299A) (antibody, V domains shown, also called H3/L1) VH: EVQVVESGGGLVKPGGSLRLSCKASGYTFTSYWMHWVKQAPGKGLEWVGAIYPGNSDTSYNQKFKGKFTLSAVTSSNTAYLQMNSLKTEDTAVYYCTTTTYGYDWFAYWGQGTLVTVSS VL: DIQMTQSPSSLSASVGDRVTMTCKSSQSVLYSSNQKNYLAWYQQKPGKAPKLLIYWASTRESGVPDRFSGSGSGTDFTLTISSLQPEDFATYYCHQYLSSLTFGQGTKLEIK", "EC50, nM": 1.2}
{"binder": "VH2/VL3 Agly-hIgG1(T299A) (antibody, V domains shown, also called H2/L3) VH: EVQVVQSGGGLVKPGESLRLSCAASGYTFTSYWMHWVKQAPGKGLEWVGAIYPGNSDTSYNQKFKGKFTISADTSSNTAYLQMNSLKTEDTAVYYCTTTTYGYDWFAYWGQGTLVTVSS VL: DIQMTQSPSSLTVSVGDRVTMSCKSSQSVLYSSNQKNYLAWYQQKPGKSPKLLIYWASTRESGVPDRFTGSGSGTDFTLTISSVQPEDFATYYCHQYLSSLTFGAGTKLEIK", "EC50, nM": 1}

Shifting focus to the binder that follows.
Ask: EC50 for VH5/VL2 Agly-hIgG1(T299A) (antibody, V domains shown, also called H5/L2 (Agly-IgG1)) VH: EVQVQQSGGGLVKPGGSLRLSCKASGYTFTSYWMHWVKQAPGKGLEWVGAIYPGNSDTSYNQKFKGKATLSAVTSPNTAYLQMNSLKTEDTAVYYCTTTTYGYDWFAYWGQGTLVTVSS VL: NIQMTQSPSSLSASVGDRVTMSCKSSQSVLYSSNQKNYLAWYQQKPGKSPKLLIYWASTRESGVPDRFTGSGSGTDFTLTISSLQPEDFATYYCHQYLSSLTFGQGTKLEIK ?
Result: 0.4
